This collection of values is drawn from patent US20250163162A1.

Reported Granzyme A secretion, CD8 T cells, at 0.01 µM is given for each of the following binders.
Tgt: T1, IL10Rα/IL2Rγ receptor (human) (UniProt Q13651)
T1 sequence (looked up) 1: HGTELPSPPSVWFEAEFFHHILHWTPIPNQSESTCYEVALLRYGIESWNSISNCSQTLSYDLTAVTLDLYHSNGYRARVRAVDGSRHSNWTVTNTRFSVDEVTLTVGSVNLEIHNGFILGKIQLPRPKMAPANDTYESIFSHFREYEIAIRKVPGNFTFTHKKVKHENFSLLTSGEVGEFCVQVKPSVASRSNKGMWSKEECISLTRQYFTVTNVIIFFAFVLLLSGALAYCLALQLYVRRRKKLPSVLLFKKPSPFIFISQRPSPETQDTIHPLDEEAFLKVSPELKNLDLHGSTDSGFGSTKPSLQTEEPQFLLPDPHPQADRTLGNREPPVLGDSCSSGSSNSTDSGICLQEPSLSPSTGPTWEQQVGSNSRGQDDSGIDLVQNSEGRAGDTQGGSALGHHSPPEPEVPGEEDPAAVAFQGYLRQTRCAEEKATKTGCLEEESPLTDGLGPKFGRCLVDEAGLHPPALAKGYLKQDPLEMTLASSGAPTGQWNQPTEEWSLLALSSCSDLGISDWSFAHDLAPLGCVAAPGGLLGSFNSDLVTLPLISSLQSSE
T1 sequence (looked up) 2: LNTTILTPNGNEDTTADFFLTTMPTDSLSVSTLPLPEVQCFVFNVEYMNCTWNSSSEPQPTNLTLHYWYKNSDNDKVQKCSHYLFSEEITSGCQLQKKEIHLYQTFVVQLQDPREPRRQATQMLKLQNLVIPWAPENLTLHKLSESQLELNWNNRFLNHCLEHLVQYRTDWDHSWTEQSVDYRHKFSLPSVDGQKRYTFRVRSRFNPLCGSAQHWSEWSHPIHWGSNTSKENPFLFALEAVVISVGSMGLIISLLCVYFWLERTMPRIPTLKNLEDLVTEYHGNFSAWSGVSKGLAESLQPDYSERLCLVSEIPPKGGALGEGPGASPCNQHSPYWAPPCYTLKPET
Protocol description: cell-based or functional assay
Just the number please, in pg/mL, no unit attached.

Recorded results for 2 binders are shown here.
- hIL10Ra_VHH14 - hIL2Rg_VHH19, linker GGGS, tag his (bispecific antibody, not shown: small tags and cut ends) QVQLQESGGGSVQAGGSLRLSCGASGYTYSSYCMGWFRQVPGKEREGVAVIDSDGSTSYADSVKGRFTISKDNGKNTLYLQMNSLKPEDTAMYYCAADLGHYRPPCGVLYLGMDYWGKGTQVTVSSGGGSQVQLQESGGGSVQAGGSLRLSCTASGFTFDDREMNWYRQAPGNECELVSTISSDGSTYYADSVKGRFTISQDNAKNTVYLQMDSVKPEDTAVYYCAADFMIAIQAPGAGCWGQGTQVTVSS: 22300
- hIL10Ra_VHH14 - hIL2Rg_VHH19, linker GGGS, tag Fc (bispecific antibody, not shown: a dimerising Fc or GST) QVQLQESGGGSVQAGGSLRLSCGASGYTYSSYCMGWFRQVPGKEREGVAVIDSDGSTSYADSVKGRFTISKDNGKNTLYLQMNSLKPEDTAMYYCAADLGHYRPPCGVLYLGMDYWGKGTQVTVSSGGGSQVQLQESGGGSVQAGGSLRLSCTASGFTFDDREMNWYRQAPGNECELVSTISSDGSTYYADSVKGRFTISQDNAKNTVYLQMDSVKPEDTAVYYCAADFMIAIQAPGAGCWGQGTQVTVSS: 27600

# evaluate next
Task item: Give its Granzyme A secretion, CD8 T cells, at 0.01 µM value. Item: hIL10Ra_VHH14 - hIL2Rg_VHH19, linker GS, tag his (bispecific antibody, not shown: small tags and cut ends) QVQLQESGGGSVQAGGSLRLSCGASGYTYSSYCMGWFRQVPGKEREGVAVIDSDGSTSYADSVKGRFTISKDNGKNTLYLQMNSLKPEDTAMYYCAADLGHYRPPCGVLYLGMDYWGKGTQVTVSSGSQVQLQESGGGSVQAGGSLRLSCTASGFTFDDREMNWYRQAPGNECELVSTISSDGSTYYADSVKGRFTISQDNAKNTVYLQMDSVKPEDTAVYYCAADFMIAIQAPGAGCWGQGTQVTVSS
Reply: 25900
